PROCEDURE TEXT: Body weight and food intake in C57BL/6 mice, fusion protein conjugates, 30 nmol/kg daily 10 days
Format: in vivo
Please mark Satisfied if the recorded Cumulative food intake reduction at 30 nmol/kg (% reduction compared to vehicle)(Day11) is equal to or greater than 40%, and Not satisfied if it falls below.

Record MLC013: fusion polypeptide SEQ ID NO: 260 conjugated with Moiety A at 1K of Linker (conjugate, Moiety A conjugated at linker K1) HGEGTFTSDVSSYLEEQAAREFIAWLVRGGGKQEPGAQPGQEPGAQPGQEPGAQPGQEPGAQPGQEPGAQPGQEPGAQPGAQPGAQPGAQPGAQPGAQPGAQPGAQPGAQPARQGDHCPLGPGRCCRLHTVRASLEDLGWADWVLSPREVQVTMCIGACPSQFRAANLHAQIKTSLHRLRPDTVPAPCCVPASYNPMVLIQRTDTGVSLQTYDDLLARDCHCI ; criterion: Cumulative food intake reduction at 30 nmol/kg (% reduction compared to vehicle)(Day11) no lower than 40%. Met?
Satisfied

Please check the record MLC083: fusion polypeptide SEQ ID NO: 376 conjugated with Moiety B at 39C of Linker (conjugate, Moiety B conjugated at linker Cys39) HGEGTFTSDVSSYLEEQAAKEFIAWLVRGGGGQEPGAQPGQEPGAQPGQEPGAQPGQEPGAQPGQEPGQCPGQEPGAQPGAQPGAQPGAQPGAQPGAQPGAQPGAQPGAQPARQGDHCPLGPGRCCRLHTVRASLEDLGWADWVLSPREVQVTMCIGACPSQFRAANLHAQIKTSLHRLKPDTVPAPCCVPASYNPMVLIQKTDTGVSLQTYDDLLAKDCHCI and state if its Cumulative food intake reduction at 30 nmol/kg (% reduction compared to vehicle)(Day11) is at or above 40%.
Satisfied

Given MLC093: fusion polypeptide SEQ ID NO: 381 conjugated with Moiety B at 33C of Linker (conjugate, Moiety B conjugated at linker Cys33) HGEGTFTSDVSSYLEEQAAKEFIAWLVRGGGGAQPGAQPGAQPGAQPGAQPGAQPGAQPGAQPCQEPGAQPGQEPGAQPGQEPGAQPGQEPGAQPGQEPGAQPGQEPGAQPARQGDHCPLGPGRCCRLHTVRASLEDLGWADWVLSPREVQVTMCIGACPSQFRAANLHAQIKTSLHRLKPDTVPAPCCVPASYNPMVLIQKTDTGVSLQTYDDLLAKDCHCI , state whether its Cumulative food intake reduction at 30 nmol/kg (% reduction compared to vehicle)(Day11) is at least 40%.
Satisfied

Please indicate if the recorded Cumulative food intake reduction at 30 nmol/kg (% reduction compared to vehicle)(Day11) for MLC075: fusion polypeptide SEQ ID NO: 369 conjugated with Moiety C at 41C of Linker (conjugate, Moiety C conjugated at linker C41) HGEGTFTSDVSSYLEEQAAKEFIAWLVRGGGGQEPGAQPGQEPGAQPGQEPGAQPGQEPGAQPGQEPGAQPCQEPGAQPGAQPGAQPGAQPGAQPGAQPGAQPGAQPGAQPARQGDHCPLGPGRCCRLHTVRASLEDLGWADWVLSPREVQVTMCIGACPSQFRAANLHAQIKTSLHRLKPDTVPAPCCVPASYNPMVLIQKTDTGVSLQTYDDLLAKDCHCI meets or exceeds 40%.
Satisfied

Dear colleague, could you confirm whether MLC046: fusion polypeptide SEQ ID NO: 329 conjugated with Moiety A at 60K of linker (conjugate, Moiety A conjugated at linker K60) HGEGTFTSDVSSYLEEQAAREFIAWLVRGGGGQEPGAQPGQEPGAQPGQEPGAQPGQEPGAQPGQEPGAQPGQEPGAQPGAQPGAQPGAQKGAQPGAQPGAQPGAQPGAQPARQGDHCPLGPGRCCRLHTVRASLEDLGWADWVLSPREVQVTMCIGACPSQFRAANLHAQIKTSLHRLRPDTVPAPCCVPASYNPMVLIQRTDTGVSLQTYDDLLARDCHCI has Cumulative food intake reduction at 30 nmol/kg (% reduction compared to vehicle)(Day11) at or above 40%?
Satisfied

Could you please find out whether MLC084: fusion polypeptide SEQ ID NO: 376 conjugated with Moiety C at 39C of Linker (conjugate, Moiety C conjugated at linker Cys39) HGEGTFTSDVSSYLEEQAAKEFIAWLVRGGGGQEPGAQPGQEPGAQPGQEPGAQPGQEPGAQPGQEPGQCPGQEPGAQPGAQPGAQPGAQPGAQPGAQPGAQPGAQPGAQPARQGDHCPLGPGRCCRLHTVRASLEDLGWADWVLSPREVQVTMCIGACPSQFRAANLHAQIKTSLHRLKPDTVPAPCCVPASYNPMVLIQKTDTGVSLQTYDDLLAKDCHCI has Cumulative food intake reduction at 30 nmol/kg (% reduction compared to vehicle)(Day11) that meets 40% or exceeds it?
Not satisfied
